Each record here notes measured IC50.
# measured.target: factor D (Homo sapiens, UniProt P00746)
# Construct: made in house; host or cells: E. coli
# Sequence (P00746 26-253): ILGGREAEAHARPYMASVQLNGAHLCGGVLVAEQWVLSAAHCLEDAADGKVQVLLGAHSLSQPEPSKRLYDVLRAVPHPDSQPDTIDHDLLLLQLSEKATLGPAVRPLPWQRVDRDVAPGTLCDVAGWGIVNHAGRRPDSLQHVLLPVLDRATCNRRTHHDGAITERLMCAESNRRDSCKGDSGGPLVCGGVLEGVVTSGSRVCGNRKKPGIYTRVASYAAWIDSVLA
# assay.text: factor D inhibition assay of Biological Example 2
# Assay type: biochemical
property.label: IC50 (nM)

- compound: "C[C@@H](N)c1cccc(-c2cc(COCC(F)(F)F)cc(COc3ccccc3CC(=O)O)c2)c1"
  property.label: "IC50"
  test.result: 15
- compound: "Cc1c(CN)cccc1-c1cccc(COc2ccccc2CC(=O)O)c1"
  property.label: "IC50"
  test.result: 132
- compound: "NCc1cc(F)cc(-c2cccc(C(=O)Nc3cccc(Br)c3CC(=O)O)c2)c1"
  property.label: "IC50"
  test.result: 7680
- compound: "NC(CF)c1cccc(-c2cc(COc3ccccc3CC(=O)O)cc(OC[C@H]3CCCO3)c2)c1F (single isomer, unassigned; (+)) [Example 212-B]"
  property.label: "IC50"
  test.result: 6
- compound: "N[C@H](CCO)c1cccc(-c2cccc(COc3ccccc3CC(=O)O)c2)n1"
  property.label: "IC50"
  test.result: 1120
- compound: "NCc1cccc(-c2cc(OC[C@H]3CCCO3)cc(C(=O)Nc3ccccc3CC(=O)O)c2)c1"
  property.label: "IC50"
  test.result: 9
- compound: "C[C@@H](N)c1cccc(-c2cc(COc3ccccc3CC(=O)O)cc(C(O)C(F)(F)F)c2)c1 (single isomer, unassigned) [116-H b) (tr = 4.6 min)]"
  property.label: "IC50"
  test.result: 15
- compound: "CCc1ccc(NC(=O)c2cc(NC[C@@H]3CCCO3)cc(-c3cc(F)cc(CN)c3)c2)c(CC(=O)O)c1"
  property.label: "IC50"
  test.result: 11
- compound: "C[C@@H](N)c1cccc(-c2cc(COc3ccccc3CC(=O)O)cc(OC[C@H]3CCCO3)c2)c1F"
  property.label: "IC50"
  test.result: 2
- compound: "NCc1cccc(-c2cccc(COc3c(Br)cccc3CC(=O)O)c2)c1"
  property.label: "IC50"
  test.result: 111
- compound: "CCNc1cc(COc2ccccc2CC(=O)O)cc(-c2cccc([C@@H](C)N)c2F)c1"
  property.label: "IC50"
  test.result: 6

====

In this section, each of the molecules is paired with its reported pIC50.
# measured.target: factor D (Homo sapiens, UniProt P00746)
# Construct: made in house; host or cells: E. coli
# assay.text: factor D inhibition assay of Biological Example 2
# Type: biochemical
pIC50: −log10 of the molar value.

- molecule: "COc1ccc(C)c(Nc2cc(C(=O)Nc3ccccc3CC(=O)O)cc(-c3cc(F)cc(CN)c3)c2)c1 [Example 14-A]"
  pIC50: 7.82
- molecule: "Cn1ccc(CNc2cc(C(=O)Nc3ccccc3CC(=O)O)cc(-c3cc(F)cc(CN)c3)c2)n1 [Example 14-C]"
  pIC50: 8.30
- molecule: "CCc1ccc(NC(=O)c2cccc(-c3cc(F)cc(CN)c3)n2)c(CC(=O)O)c1 [Example 21-L]"
  pIC50: 6.98
- molecule: "CCC[C@@H](N)c1cccc(-c2cc(COc3ccccc3CC(=O)O)cc(N3CCOCC3)c2)c1F [Example 198-C]"
  pIC50: 6.70

====

# measured.target: factor D (Homo sapiens)
# Construct: made in house; host or cells: E. coli
# assay.text: factor D inhibition assay of Biological Example 2
# Type: biochemical
I'd appreciate it if you marked entries class 1 when IC50 is lower than 200 nM and class 0 when it is not.

- molecule: "C[C@@H](N)c1cccc(-c2cc(COc3ccccc3CC(=O)O)cc(OCC3CCCN3)c2)c1F (some centres unmarked) [Example 266]"
  measured.target: "factor D (Homo sapiens)"
  class: "class 1"
- molecule: "N[C@H](C(=O)O)c1cccc(-c2cccc(COc3ccccc3CC(=O)O)c2)c1 [Example 193]"
  measured.target: "factor D (Homo sapiens)"
  class: "class 1"
- molecule: "NCc1cccc(-c2ccc(F)c(COc3ccccc3CC(=O)O)c2)c1 [Example 166]"
  measured.target: "factor D (Homo sapiens)"
  class: "class 1"
- molecule: "Cc1c(COc2ccccc2CC(=O)O)cccc1-c1cccc([C@@H](C)N)c1 [Example 116-N]"
  measured.target: "factor D (Homo sapiens)"
  class: "class 0"
- molecule: "NCc1cc(F)cc(-c2cccc(C(=O)Nc3ccc(Br)cc3CC(=O)O)c2)c1 [Example 18-B]"
  measured.target: "factor D (Homo sapiens)"
  class: "class 0"
- molecule: "NC(CF)c1cccc(-c2cc(COc3ccccc3CC(=O)O)cc(NC[C@@H]3CCCO3)c2)c1F (mixture of isomers) [Example 204-B]"
  measured.target: "factor D (Homo sapiens)"
  class: "class 1"
- molecule: "C[C@@H](N)c1cccc(-c2cc(NC[C@H]3CCCO3)c3c(c2)C(Oc2ccccc2CC(=O)O)CCO3)c1F (some centres unmarked) [Example 216-W]"
  measured.target: "factor D (Homo sapiens)"
  class: "class 1"
- molecule: "C[C@@H](N)c1cccc(-c2cccc(C(=O)Nc3ccccc3CC(=O)O)c2)c1 [Example 90]"
  measured.target: "factor D (Homo sapiens)"
  class: "class 0"
- molecule: "NC(=O)Cc1ccccc1OCc1cccc(-c2cccc([C@H](N)CO)c2)c1 [Example 146-C]"
  measured.target: "factor D (Homo sapiens)"
  class: "class 0"
- molecule: "NCc1cccc(-c2cccc(C(=O)Nc3cc(Cl)ccc3CC(=O)O)c2)c1 [Example 17-B]"
  measured.target: "factor D (Homo sapiens)"
  class: "class 0"
- molecule: "N[C@H](CO)c1cccc(-c2ccc3c(c2)C(Oc2ccccc2CC(=O)O)CC3)c1 (mixture of isomers) [Example 172]"
  measured.target: "factor D (Homo sapiens)"
  class: "class 0"
- molecule: "C[C@@H](N)c1cccc(-c2cc(COc3ccccc3CC(=O)O)cc(OCc3cccnc3)c2)c1F [Example 214-L]"
  measured.target: "factor D (Homo sapiens)"
  class: "class 1"
- molecule: "CC(O)c1ccc(NC(=O)c2cccc(-c3cc(F)cc(CN)c3)c2)c(CC(=O)O)c1 (centres unmarked) [Example 24]"
  measured.target: "factor D (Homo sapiens)"
  class: "class 0"
- molecule: "CC(Oc1ccccc1CC(=O)O)c1cccc(-c2cccc(CN)c2F)c1 (racemic) [Example 183]"
  measured.target: "factor D (Homo sapiens)"
  class: "class 1"
- molecule: "COC[C@@H](N)c1cccc(-c2cccc(COc3ccccc3CC(=O)O)c2)c1 [Example 169]"
  measured.target: "factor D (Homo sapiens)"
  class: "class 1"
- molecule: "C[C@@H](N)c1cccc(-c2cc(CNc3ccn(C)n3)cc(COc3ccccc3CC(=O)O)c2)c1F [Example 216-AF]"
  measured.target: "factor D (Homo sapiens)"
  class: "class 1"
- molecule: "CCc1cc(COc2ccccc2CC(=O)O)cc(-c2cccc(CN)c2)c1 [Example 104]"
  measured.target: "factor D (Homo sapiens)"
  class: "class 1"
- molecule: "N[C@H](CO)c1cccc(-c2ccnc(COc3ccccc3CC(=O)O)c2)c1 [Example 170]"
  measured.target: "factor D (Homo sapiens)"
  class: "class 1"
- molecule: "NCc1cccc(-c2cc(C(=O)Nc3ccccc3CC(=O)O)nc(-c3cccc(CN)c3)c2)c1 [Example 42]"
  measured.target: "factor D (Homo sapiens)"
  class: "class 1"
- molecule: "NCc1cccc(-c2ccc3c(c2)C(Oc2ccccc2CC(=O)O)CCO3)c1 (single isomer, unassigned) [177 b) (tr = 8.8 min)]"
  measured.target: "factor D (Homo sapiens)"
  class: "class 1"
- molecule: "NC(CF)c1cccc(-c2cc(COc3ccccc3CC(=O)O)cc(CN3CCOCC3)c2)c1F (single isomer, unassigned) [Example 217-D]"
  measured.target: "factor D (Homo sapiens)"
  class: "class 1"
- molecule: "N[C@H](CO)c1cccc(-c2ccc(OC(F)(F)F)c(COc3ccccc3CC(=O)O)c2)c1 [Example 188]"
  measured.target: "factor D (Homo sapiens)"
  class: "class 1"
- molecule: "CCN(C[C@@H]1CCCO1)c1cc(COc2ccccc2CC(=O)O)cc(-c2cccc([C@@H](C)N)c2F)c1 [Example 216-J]"
  measured.target: "factor D (Homo sapiens)"
  class: "class 1"

====

# measured.target: factor D (Homo sapiens)
# Construct: made in house; host or cells: E. coli
# assay.text: factor D inhibition assay of Biological Example 2
# Type: biochemical
property.label: IC50 (nM)

- compound: "NCc1cccc(-c2cc(N3CCOCC3)cc(C(=O)Nc3ccccc3CC(=O)O)n2)c1"
  test.result: 9
- compound: "COC(=O)Cc1ccccc1NC(=O)c1cccc(-c2cc(CN)ccc2F)c1"
  test.result: 33100
- compound: "NCc1cccc(-c2cc(COc3ccccc3CC(=O)O)cc(OCC3CC3)c2)c1"
  test.result: 5
- compound: "CC(O)c1cc(COc2ccccc2CC(=O)O)cc(-c2cccc([C@@H](C)N)c2)c1 (stereo partly drawn)"
  test.result: 5
- compound: "CC(C)Nc1cc(COc2ccccc2CC(=O)O)cc(-c2cccc([C@@H](C)N)c2F)c1"
  test.result: 11
- compound: "CN(C)C(c1cc(COc2ccccc2CC(=O)O)cc(-c2cccc(CN)c2)c1)C(F)(F)F (stereo not drawn)"
  test.result: 27
